Measured MIC, listed per entry.
tested on: E. coli JC-2; test: Minimal inhibitory concentration, nutrient agar plate; type: cell-based; conditions: Escherichia coli, JC2; as sodium salt, inoculum size 10^8, pH 7.0; read-out: Minimal inhibitory concentration

[
  {
    "molecule": "Cc1nnc(SCC2=C(C(=O)O)N3C(=O)[C@@H](NC(=O)C(C(=O)O)c4ccccc4)[C@H]3OC2)s1 (stereo partly drawn) [Example III-12]",
    "MIC, µg/mL": 0.39
  },
  {
    "molecule": "Cn1nnnc1SCC1=C(C(=O)O)N2C(=O)[C@@H](NC(=O)C(C(=O)O)c3ccsc3)[C@H]2OC1 (stereo partly drawn) [Example III-9]",
    "MIC, µg/mL": 0.1
  },
  {
    "molecule": "CC(=O)OCC1=C(C(=O)O)N2C(=O)[C@@H](NC(=O)Cc3cccs3)[C@H]2SC1 [Cefalotin, reference compound]",
    "MIC, µg/mL": 12.5
  },
  {
    "molecule": "CC(=O)OCC1=C(C(=O)O)N2C(=O)[C@@H](NC(=O)Cc3cccs3)[C@H]2OC1 [(2), reference compound]",
    "MIC, µg/mL": 6.25
  },
  {
    "molecule": "Cc1nnc(SCC2=C(C(=O)O)N3C(=O)[C@@H](NC(=O)Cn4cnnn4)[C@H]3SC2)s1 [Cefazolin, reference compound]",
    "MIC, µg/mL": 3.2
  },
  {
    "molecule": "CO[C@@]1(NC(=O)C(C(=O)O)c2ccc(OC(C)=O)cc2)C(=O)N2C(C(=O)O)=C(CSc3nnnn3C)CO[C@@H]21 (stereo partly drawn) [III-14]",
    "MIC, µg/mL": 0.39
  },
  {
    "molecule": "O=C(O)Cn1nnnc1SCC1=C(C(=O)O)N2C(=O)[C@@H](NC(=O)C(C(=O)O)c3cccs3)[C@H]2OC1 (stereo partly drawn) [Example III-11]",
    "MIC, µg/mL": 12.5
  },
  {
    "molecule": "Cc1nnc(SCC2=C(C(=O)O)N3C(=O)[C@@H](NC(=O)Cn4cnnn4)[C@H]3OC2)s1 [(3), reference compound]",
    "MIC, µg/mL": 1.56
  },
  {
    "molecule": "CO[C@@]1(NC(=O)C(C(=O)O)c2ccsc2)C(=O)N2C(C(=O)O)=C(CSc3nnnn3C)CO[C@@H]21 (stereo partly drawn) [III-19]",
    "MIC, µg/mL": 0.05
  },
  {
    "molecule": "CO[C@@]1(NC(=O)C(C(=O)O)c2cccs2)C(=O)N2C(C(=O)O)=C(CSc3nnnn3C)CO[C@@H]21 (stereo partly drawn) [III-23]",
    "MIC, µg/mL": 0.05
  },
  {
    "molecule": "O=C(O)Cn1nnnc1SCC1=C(C(=O)O)N2C(=O)[C@@H](NC(=O)C(C(=O)O)c3ccccc3)[C@H]2OC1 (stereo partly drawn) [Example III-10]",
    "MIC, µg/mL": 3.13
  },
  {
    "molecule": "CO[C@@]1(NC(=O)C(C(=O)O)c2ccccc2)C(=O)N2C(C(=O)O)=C(CSc3nnnn3C)CO[C@@H]21 (stereo partly drawn) [III-13]",
    "MIC, µg/mL": 0.01
  }
]

---

Item-by-item account of MIC
test system: E. coli 377; experiment: Minimal inhibitory concentration, nutrient agar plate; assay type: cell-based, Escherichia coli; conditions: Escherichia coli, 377; as sodium salt, inoculum size 10^8, pH 7.0; read-out: Minimal inhibitory concentration

[
  {
    "compound": "CC(=O)OCC1=C(C(=O)O)N2C(=O)[C@@H](NC(=O)Cc3cccs3)[C@H]2OC1 [(2), reference compound]",
    "bound sign": ">",
    "MIC / µg/mL": 100
  },
  {
    "compound": "CC(=O)OCC1=C(C(=O)O)N2C(=O)[C@@H](NC(=O)Cc3cccs3)[C@H]2SC1 [Cefalotin, reference compound]",
    "bound sign": ">",
    "MIC / µg/mL": 100
  },
  {
    "compound": "Cn1nnnc1SCC1=C(C(=O)O)N2C(=O)[C@@H](NC(=O)C(C(=O)O)c3ccc(O)cc3)[C@H]2OC1 (stereo partly drawn) [Example III-6]",
    "bound sign": "=",
    "MIC / µg/mL": 0.39
  },
  {
    "compound": "Cc1nnc(SCC2=C(C(=O)O)N3C(=O)[C@@H](NC(=O)Cn4cnnn4)[C@H]3SC2)s1 [Cefazolin, reference compound]",
    "bound sign": "=",
    "MIC / µg/mL": 100
  },
  {
    "compound": "CO[C@@]1(NC(=O)C(C(=O)O)c2ccsc2)C(=O)N2C(C(=O)O)=C(CSc3nnnn3C)CO[C@@H]21 (stereo partly drawn) [III-19]",
    "bound sign": "=",
    "MIC / µg/mL": 0.1
  },
  {
    "compound": "CC1=C(C(=O)O)N2C(=O)[C@@H](NC(=O)C(N)c3ccccc3)[C@H]2OC1 (stereo partly drawn) [(1), reference compound]",
    "bound sign": ">",
    "MIC / µg/mL": 100
  },
  {
    "compound": "CO[C@@]1(NC(=O)C(C(=O)O)c2ccc(OC(N)=O)cc2)C(=O)N2C(C(=O)O)=C(CSc3nnnn3C)CO[C@@H]21 (stereo partly drawn) [Example III-25]",
    "bound sign": "=",
    "MIC / µg/mL": 0.78
  },
  {
    "compound": "CO[C@@]1(NC(=O)C(C(=O)O)c2ccccc2)C(=O)N2C(C(=O)O)=C(CSc3nnnn3C)CO[C@@H]21 (stereo partly drawn) [III-13]",
    "bound sign": "=",
    "MIC / µg/mL": 0.2
  },
  {
    "compound": "CO[C@@]1(NC(=O)C(C(=O)O)c2cccs2)C(=O)N2C(C(=O)O)=C(CSc3nnnn3C)CO[C@@H]21 (stereo partly drawn) [III-23]",
    "bound sign": "=",
    "MIC / µg/mL": 0.39
  }
]

---

tested on: P. vulgaris No. 3; experiment: Minimal inhibitory concentration, nutrient agar plate; assay type: cell-based; conditions: Proteus vulgaris, NO.3; as sodium salt, inoculum size 10^8, pH 7.0; read-out: Minimal inhibitory concentration
We begin with a simple list: items and their reported MIC.
measurement type: MIC

[
  {
    "molecule": "CC(=O)OCC1=C(C(=O)O)N2C(=O)[C@@H](NC(=O)Cc3cccs3)[C@H]2SC1 [Cefalotin, reference compound]",
    "measured result": "> 100 µg/mL"
  },
  {
    "molecule": "Cn1nnnc1SCC1=C(C(=O)O)N2C(=O)[C@@H](NC(=O)C(C(=O)O)c3ccc(O)cc3)[C@H]2OC1 (stereo partly drawn)",
    "measured result": "> 100 µg/mL"
  },
  {
    "molecule": "Cc1nnc(SCC2=C(C(=O)O)N3C(=O)[C@@H](NC(=O)Cn4cnnn4)[C@H]3SC2)s1 [Cefazolin, reference compound]",
    "measured result": "> 100 µg/mL"
  }
]

Recorded values, source patent US4323567A.
